The measured values listed here are drawn from PubChem BioAssay AID504645.

Tested on: M. tuberculosis H37Rv growth inhibition, glycerol-free medium
METHOD_NOTES: Mycobacterium tuberculosis H37Rv growth inhibition, glycerol free medium, confirmatory screen (AID 504645);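 note: bacteria grown one week before the viability dye was added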
STATED_CONDITIONS: measured here: 90% growth inhibition
Hi all, reminder that labels come from IC90, split as 0 = under 2 µM, 1 = from 2 µM up to 5 µM, 2 = 5 µM and over

MOLECULE: CC(C)OC(=O)CSc1ncnc2c1cnn2-c1ccccc1
EXPERIMENTAL_TARGET: M. tuberculosis H37Rv growth inhibition, glycerol-free medium
CLASSIFICATION: 2
--
MOLECULE: Cc1ccc(NC(=O)C2C3/C=C\CCCCC32)cc1C (configuration not stated)
EXPERIMENTAL_TARGET: M. tuberculosis H37Rv growth inhibition, glycerol-free medium
CLASSIFICATION: 2
--
MOLECULE: COC(=O)CSc1ncnc2c1cnn2-c1ccc(C)cc1C
EXPERIMENTAL_TARGET: M. tuberculosis H37Rv growth inhibition, glycerol-free medium
CLASSIFICATION: 2
--
MOLECULE: Cc1nc(SCC(=O)NC2CCCC2)[nH]c(=O)c1C
EXPERIMENTAL_TARGET: M. tuberculosis H37Rv growth inhibition, glycerol-free medium
CLASSIFICATION: 2
--
MOLECULE: CCOc1ccc(NC(=O)CSc2nc(O)c(C)c(=O)n2-c2ccc(F)cc2)cc1
EXPERIMENTAL_TARGET: M. tuberculosis H37Rv growth inhibition, glycerol-free medium
CLASSIFICATION: 2
--
MOLECULE: COC(=O)c1cc(=O)n(-c2ccc(F)cc2)c(=Nc2ccc(F)cc2)s1
EXPERIMENTAL_TARGET: M. tuberculosis H37Rv growth inhibition, glycerol-free medium
CLASSIFICATION: 0
--
MOLECULE: CCOC(=O)CSc1ncnc2c1cnn2-c1ccccc1
EXPERIMENTAL_TARGET: M. tuberculosis H37Rv growth inhibition, glycerol-free medium
CLASSIFICATION: 2
--
MOLECULE: Cc1cccc(N2CCN(C(=O)c3ccc(CNc4c(N5CCC(C)CC5)c(=O)c4=O)cc3)CC2)c1C
EXPERIMENTAL_TARGET: M. tuberculosis H37Rv growth inhibition, glycerol-free medium
CLASSIFICATION: 2

input: Given CCC(C)Nc1ccc(NC(C)CC)cc1 (configuration not stated) , name the class its IC90 places it in.
output: 0

input: Given `CC(C)NC(=O)c1sc(=S)n2c1[nH]c(=O)c1ccc(C(=O)NCCc3ccc(Cl)cc3)cc12` , name the class its IC90 places it in.
output: 0

input: Given `CCOC(=O)c1ccc(NC(=O)Cn2ncc(Cl)c(Cl)c2=O)cc1` , name the class its IC90 places it in.
output: 0

input: Given `Cc1cc(C)n2nc(N)c(N=Nc3ccccc3)c2n1` , name the class its IC90 places it in.
output: 1

input: Given `CCOC(=O)CSc1ncnc2c1nnn2-c1ccc(F)cc1` , name the class its IC90 places it in.
output: 2

---

Tested on: M. tuberculosis H37Rv growth inhibition, glycerol-free medium
METHOD_NOTES: Mycobacterium tuberculosis H37Rv growth inhibition, glycerol free medium, confirmatory screen (AID 504645);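 note: bacteria grown one week before the viability dye was added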
Give IC50 for every item shown.

COMPOUND: Cc1ccc(NC(=O)COC(=O)CCc2c[nH]c3ccccc23)cc1[N+](=O)[O-]
VALUE_KIND: IC50
RECORDED_RESULT: 1.92 µM

Fill in IC50 for each of the 2 compounds listed.
1. CCC(Sc1ncnc2c1nnn2-c1ccc(F)cc1)C(=O)OC (stereo not given)
2. CC(C)NC(=O)c1sc(=S)n2c1[nH]c(=O)c1ccc(C(=O)NCCc3ccc(Cl)cc3)cc12

output:
["11.9 µM", "0.31 µM"]

Fill in IC50 for each of the 2 compounds listed.
1. COC(=O)c1cc(=O)n(-c2ccc(F)cc2)c(=Nc2ccc(F)cc2)s1
2. O=C(/C=C/c1ccccc1)N1CCN(CCN2C(=O)c3cccc4cccc(c34)C2=O)CC1

output:
1: 0.64 µM; 2: 2.07 µM
